Values were extracted from patent US11925629B2.

Tested on: HCT116 (colorectal carcinoma, K Ras G13D) cells
Assay: Cell proliferation (Alamar Blue) assay, HCT116
Assay type: cell-based, human
Details: Homo sapiens, HCT-116, HCT116 cells
metric-name: IC50

Consider the worked cases shown below.
{"compound": "O=C(Nc1cnn(-c2nc(NC3CC3)ncc2F)c1)N[C@H](CO)c1cccc(Cl)c1", "IC50": "> 2500 nM"}
{"compound": "Cc1cnc(Nc2ccccc2)cc1-n1cnc(C(=O)NC(CO)c2ccccc2)c1 (centres unmarked)", "IC50": "> 2500 nM"}
{"compound": "Cc1cnc(Nc2ccc(F)cc2Cl)cc1-n1ccc(C(=O)NC(CO)c2ccccc2)c1 (centres unmarked)", "IC50": "> 2500 nM"}

Record IC50 for all entries; do not skip any.
1. Cc1cnc(NC2CCN(C)C2)nc1-n1ccc(C(=O)N[C@H](CO)c2cccc(Cl)c2)c1 (some centres unmarked)
2. Cc1cnc(NC2CCCCC2)nc1-n1ccc(C(=O)NC(CO)c2cccc(Cl)c2)c1 (centres unmarked)
3. Cc1cnc(Nc2ccc(F)cc2Cl)cc1-n1cnc(C(=O)NC(CO)c2ccccc2)c1 (centres unmarked)
4. Cc1cnc(NC2CCOCC2)nc1-n1cnc(C(=O)N[C@]2(c3cccc(Cl)c3)C[C@@H](O)C2)c1
5. COc1cc(Nc2ncc(C)c(-n3ccc(C(=O)NC(CO)c4ccccc4)c3)n2)cc(OC)c1OC (centres unmarked)
6. Cc1cc(Nc2ncc(C)c(-n3ccc(C(=O)NC(CO)c4cccc(Cl)c4)c3)n2)ccc1C1CCNCC1 (centres unmarked)

Given back:
1. > 2500 nM
2. 500 to 2500 nM
3. > 2500 nM
4. 500 to 2500 nM
5. 250 to 500 nM
6. 250 to 500 nM
